- SYSTEM: Rap guanine nucleotide exchange factor 4 (Homo sapiens)
- METHOD: Confirmatory qHTS for antagonist of cAMP-regulated guanine nucleotide exchange factor 4 (EPAC2) (AID 1645885); note: nearly all actives have a fitted effect of over 25% in size
- STATED CONDITIONS: EPAC2 Rap1B-BODIPY-GDP exchange fluorescence, biochemical; series mostly up to 114 µM
Records with an inconclusive call do not appear. Active and inactive are the calls of the source. Calls come from the whole dose curve; as a rule, active = well fitted inhibition curve with a large enough effect; inconclusive = small, poorly fitted or top-dose-only effect; inactive = no such curve, though single readings can be large or run the other way.
Classes used: active, inactive

# COMPOUND, QUALITATIVE LABEL
measured = [
    ("Cc1cc2nc3c(=O)[nH]c(=O)nc-3n(C[C@H](O)[C@H](O)[C@H](O)CO)c2cc1C", "inactive"),
    ("CC1(C)Oc2ccc(C#N)cc2[C@@H](N2CCCC2=O)[C@@H]1O", "inactive"),
    ("CCN(CC)CCCC(C)Nc1c2ccc(Cl)cc2nc2ccc(OC)cc12 (centres undefined)", "inactive"),
    ("O=C1Nc2ccc(Cl)cc2[C@@](C#CC2CC2)(C(F)(F)F)O1", "active"),
]
